Tested on: PXR homodimer (NR concentration 270 nM)
Assay: PBM binding z-score (relative to random genomic background probes); higher = stronger binding; sequences stand for … in GC…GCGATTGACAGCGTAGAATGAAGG
Parameter: PBM binding z-score. Scope: all listed entries.
READOUT_TYPE: PBM binding z-score

TCGAGTAGGTTAGGGACATTCAGAATGGCGTCGA -0.414
CGTCCAAGCTCAAGGTCAGTGAAAGAGACTCGAA 0.437
TCAGACAGGTGAAGGTAACTGAGGTACGCAGTCG -0.0672
CATCCTAGGTCAGGGCCAGTATAGGAGGAACGTT -0.294
CCTACTGGGCCAAAAAGGTCATTGGTGCCGATAA 5.2
CAAACTAGGGCACGAAAGGTCAAAGTCGAATGAC 1.28
TATGCTAGGTCAACGATGGTCAGCTAATCTGCTA -0.438
TTACCAAGGTGAAAGGTGGTTGATGCACGCCTTG -0.541
TATACAGTGTCAAAGGCCAGAGTACGAATGTCGA 0.236
GATGCAGGGTCAAGGCCAGAGTACGCGTATTGAT 0.224

###

Tested on: PPARg:RXRa 270nM:90nM, anti-RXR (NR concentration 270 nM, RXRa partner concentration 90 nM)
Experiment: PBM binding z-score (relative to random genomic background probes); higher = stronger binding; sequences stand for … in GC…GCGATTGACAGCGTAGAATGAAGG
# PBM binding z-score >= 4 gives yes (1), anything below gives no (0)

ATCTCTAGGTAAGACTCAGTACAGTGAAGAACGC no (0)
TAGCCTAGGTCATGCGGGCCAGTAAAGTGTCGGC no (0)
ACACACAGGTGATGAAGGTAACTCAGGCTATCAT no (0)
TCTAGTAGATCAAAGGTTAAGAAAGCCGAAGCCT yes (1)
TAGCCTAGGTCATCGGCCAGTATACCACGCGAAC no (0)
CGTCCAAGGTCAATGATAGGTCAGTGAAAGCATT yes (1)
TCAGACAGCTGAAGGTAACTCAGGTACGCAGTCG no (0)
GCTTGAAGATCAAGGTTAAGAAAGACTAAGCTAA no (0)
GATACAGGGTCAGCTAGCGGCCAGAGTATGGAAA no (0)
TAGCCTACGTCATTCAGGGGCCAGTATAGAAAGC no (0)
CCGACTGGGGCAAAGGTTATCATACTCAGTACGA yes (1)
AATACAGGGTCATCGTAGGCGAGAGTACGCACAG yes (1)
CCTACCGGGCCAAAGGTCATTGATTCCAATGCTC yes (1)
GGAACGAGGGCATTCGATTTGATAGCATGGCGAT no (0)

###

System: PPARg:RXRa IVT, anti-PPARg (NR concentration 270 nM, RXRa partner concentration 90 nM)
Assay: PBM binding z-score (relative to random genomic background probes); higher = stronger binding; sequences stand for … in GC…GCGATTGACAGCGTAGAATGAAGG
Reported PBM binding z-score values for the following sequences.
READOUT_TYPE: PBM binding z-score

AGAACGAGGGCAATGAATTGATAGCACGGGTGGC 2.58
CCTCGGAGGACAACAGGAGGTCCGAGCTGCCAGA -0.95
ATCTCTAGGTAACAAATTCAGTGAAAGAGAGGAC 2.57
GCTAGTTGGTCAGAAAAAGGTCACACACCGGTCG 2.29
CAAACTAGGTCAAAGCTCAAAGTCGAGCCAACCA 8.57
ATATGTATGTTAAGGGTCATTCAGGTTGGTTCGC 4.91
CGTCAAAGTTCCAGGTAACGTAACAGAAAGCAGC 0.748
CGTCAAAGTTCAACTAAGCTAACGTAAAGCACGC 1.69
CGTCAATGTTCAAGGTAACGTAACAGAAAGCAGC 0.397
ATCTCTAGGTAGGACTCAGTTCAGTGAAGAACGC 0.852
CGAACTACGTCAAGGACAGTGAATCTCCGCACGC -0.464
AGCACGAGGGCACGCTGAGTTGATAGCAGAGTAG 2.17
GCAGACAGGTGAAACGCAGGTAAATCAGGGTGGC 0.429
CCTAGCAGGCCAGGGTCACTCATGCATTTCGCTT 1.27
